# Experimental System: human H1 receptor (Homo sapiens, UniProt P35367)
# Construct: purchased Furoscreen S A, Brussels, Belgium (so in the source); host or cells: CHO-K1
# Sequence (P35367 whole entry): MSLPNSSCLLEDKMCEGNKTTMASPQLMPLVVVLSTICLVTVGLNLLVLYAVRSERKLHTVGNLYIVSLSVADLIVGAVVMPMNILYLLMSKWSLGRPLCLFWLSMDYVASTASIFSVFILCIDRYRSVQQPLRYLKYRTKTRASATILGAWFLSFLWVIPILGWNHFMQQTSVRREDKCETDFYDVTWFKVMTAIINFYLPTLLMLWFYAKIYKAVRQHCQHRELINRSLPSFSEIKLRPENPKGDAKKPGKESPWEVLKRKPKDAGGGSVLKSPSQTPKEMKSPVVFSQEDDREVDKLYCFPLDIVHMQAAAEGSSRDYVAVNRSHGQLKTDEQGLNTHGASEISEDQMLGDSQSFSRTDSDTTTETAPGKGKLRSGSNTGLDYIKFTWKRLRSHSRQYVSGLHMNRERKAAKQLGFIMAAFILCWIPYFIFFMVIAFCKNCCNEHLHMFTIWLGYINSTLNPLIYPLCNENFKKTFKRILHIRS
# Assay Text: Histamine H1 receptor binding, competition displacement of [3H]-pyrilamine
# Test Conditions: 1 nM [3H]-pyrilamine; membranes from recombinant CHO-K1 cells expressing the human H1 receptor; 1 hour at room temperature; read-out: H1 pKi/ [1328_S] (converted)
Quantity Name: Ki

| Compound | Quantity Name | Assay Value |
| --- | --- | --- |
| O=C(c1c[nH]c(=O)c2ccccc12)N1CCO[C@H](CN2CCC(Oc3ccc(Cl)c(Cl)c3)CC2)C1 | Ki | 7.94 nM |
| CS(=O)(=O)c1cccc(C(=O)N2CCOC(CN3CCC(Oc4ccc(Cl)c(Cl)c4)CC3)C2)c1 (stereo not shown) | Ki | 100 nM |
| CS(=O)(=O)c1cccc(C(=O)N2CCO[C@@H](CN3CCC(Oc4ccc(Cl)c(Cl)c4)CC3)C2)c1 | Ki | 20 nM |
| O=C(c1cn2cc(F)ccc2n1)N1CCOC(CN2CCC(Oc3ccc(Cl)c(Cl)c3)CC2)C1 (stereo not shown) | Ki | 12.6 nM |
